tested on: TLR2 induced IL-6 in peripheral blood mononuclear cells (PBMCs); test: PBMC TLR2 Induced IL-6 Assay; assay type: cell-based, human; conditions: Homo sapiens, PBMC, 5 h, human PBMCs, 10 μg/ml lipoteichoic acid for 5 hours, IL-6 by ELISA; value without asterisk; read-out: Cell IC50
Each record here notes measured IC50.
Write the number in µM without appending the unit.

Here's what some known entries look like.
- MOLECULE: "O=C(Nc1ccc(Cn2cncn2)cc1)c1cnc(Nc2ccc3ncsc3c2)cc1NC1CCCC1 [Example 156]"
  MEASURED_ENDPOINT: "IC50"
  OBSERVED_MEASUREMENT: 0.502
- MOLECULE: "CC(C)(F)CNc1cc(Nc2ccc3ncsc3c2)ncc1C(=O)NC[C@@H](F)C(C)(C)O [Example 126]"
  MEASURED_ENDPOINT: "IC50"
  OBSERVED_MEASUREMENT: 0.102
- MOLECULE: "CC(C)Nc1cc(Nc2ccc3ncsc3c2)ncc1C(=O)NC12CCC(C(=O)NCC(C)(C)O)(CC1)CC2 [Example 226]"
  MEASURED_ENDPOINT: "IC50"
  OBSERVED_MEASUREMENT: 0.274
- MOLECULE: "CC(C)(O)[C@H](F)CNC(=O)c1cnc(Nc2ccc3ncccc3c2)cc1NC1CC1 [Example 58]"
  MEASURED_ENDPOINT: "IC50"
  OBSERVED_MEASUREMENT: 0.545
- MOLECULE: "CCC(O)(CC)[C@H](F)CNC(=O)c1cnc(Nc2ccc3ncsc3c2)cc1NCC(C)(C)F [Example 317]"
  MEASURED_ENDPOINT: "IC50"
  OBSERVED_MEASUREMENT: 0.374

Ask: Please give the measured IC50 for this molecule: CNC(=O)c1cnc(Nc2nc3ccc(Cl)nc3s2)cc1NC(C)C [Example 4]
Result: 0.639

Ask: Please give the measured IC50 for this molecule: CCNc1cc(Nc2ccc3ncc(F)cc3n2)ncc1C(=O)NC[C@@H](F)C(C)(C)O [Example 437]
Result: 0.214

Ask: Please give the measured IC50 for this molecule: CC(C)(C)CNc1cc(Nc2ccc3nccnc3c2)ncc1C(=O)NC[C@@H](F)C(C)(C)O [Example 103]
Result: 0.411

###

system: TLR2 induced IL-6 in peripheral blood mononuclear cells (PBMCs); test: PBMC TLR2 Induced IL-6 Assay; assay type: cell-based, human; details: Homo sapiens, PBMC, 5 h, human PBMCs, 10 μg/ml lipoteichoic acid for 5 hours, IL-6 by ELISA; value without asterisk; read-out: Cell IC50
Each record here notes measured IC50.
Write the number in nM without appending the unit.

Here's what some known entries look like.
- COMPOUND: "CC(C)(O)[C@H](F)CNC(=O)c1cnc(Nc2ccn3nccc3c2)cc1NC1CCC(F)C1 (stereo partly shown)"
  MEASURED_ENDPOINT: "IC50"
  ENDPOINT_UNIT: "nM"
  OBSERVED_MEASUREMENT: 674
- COMPOUND: "CC(C)(O)[C@H](F)CNC(=O)c1cnc(Nc2ccc3ncsc3n2)cc1NCC(F)(F)F"
  MEASURED_ENDPOINT: "IC50"
  ENDPOINT_UNIT: "nM"
  OBSERVED_MEASUREMENT: 173
- COMPOUND: "CC(C)(O)[C@H](F)CNC(=O)c1cnc(Nc2ccc3ncsc3c2)cc1NC1CC(F)(F)C1"
  MEASURED_ENDPOINT: "IC50"
  ENDPOINT_UNIT: "nM"
  OBSERVED_MEASUREMENT: 345

Now consider a different compound.
Ask: Please give the measured IC50 for this compound: CC(C)(O)[C@H](F)CNC(=O)c1cnc(Nc2cc3scnc3cn2)cc1NC1CC1
Result: 426
